Reference for the values: PubChem BioAssay (NCI)

Tested on: U251 CNS
Assay: NCI-60 one-dose screen, 48 h (100 = growth as untreated, 0 = no growth, -100 = all killed)
Settings: 10 µM unless noted
This is part of a sample that, as a whole, favours compounds with a hit. Of some 83,000 tested, about 20% had one in any assay.

>  <COMPOUND>
CC(=O)O[C@H]1CC[C@H]2[C@@H]3CC[C@H]4CC=C(C)C[C@]4(C)[C@H]3CC[C@]12C

>  <growth, %>
110

$$$$
>  <COMPOUND>
C=CCN1C(=O)C(CC)(CCC(C)C)C(=O)NC1=S (centres undefined)

>  <growth, %>
97.3

$$$$
>  <COMPOUND>
C[C@]12CC[C@H](OC3OC(O)C(O)C(O)C3O)C=C1CCC1C2CC[C@]2(C)[C@@H](c3ccc(=O)oc3)CC[C@]12O (some centres undefined)

>  <growth, %>
104

$$$$
>  <COMPOUND>
COc1ccccc1N1CCN(CCc2c[nH]c3cc4c(cc23)OCO4)CC1

>  <growth, %>
85.4

$$$$
>  <COMPOUND>
ClCCN(CCCl)c1nc(Cl)c(C2CC(c3ccccc3)=NN2c2ccccc2)s1 (centres undefined)

>  <growth, %>
86.1

$$$$
>  <COMPOUND>
COc1cc(C2=NN(c3ccccc3)C(c3sc(N(CCCl)CCCl)nc3Cl)C2)cc(OC)c1OC (centres undefined)

>  <growth, %>
85.6

$$$$
>  <COMPOUND>
O=C(N/N=C/c1ccc([N+](=O)[O-])o1)c1cc([N+](=O)[O-])cc([N+](=O)[O-])c1O

>  <growth, %>
91.8

$$$$
>  <COMPOUND>
CC(N)Cc1ccc(O)cc1 (centres undefined)

>  <growth, %>
106

$$$$
>  <COMPOUND>
COc1ccc(/C=C(/C(=O)N2CCCC2)c2cc(OC)c(OC)c(OC)c2)cc1N

>  <growth, %>
31

$$$$

* * *

System: RXF 393 renal
Experiment: NCI-60 one-dose screen, 48 h (100 = growth as untreated, 0 = no growth, -100 = all killed)
Details: 10 µM unless noted
Compounds without any hit were thinned out: in the full panel of roughly 83,000, 20% have a hit.

>  <COMPOUND>
CCOCC1(CCc2ccccc2)C(=O)NC(=S)NC1=O

>  <growth, %>
117

$$$$
>  <COMPOUND>
S=P(Nc1ccccc1)(Nc1ccccc1)c1ccccc1

>  <growth, %>
98.5

$$$$
>  <COMPOUND>
O=C(CCl)NCNC(=O)CCl

>  <growth, %>
107

$$$$
>  <COMPOUND>
CNC(C)Cc1ccccc1 (stereo unspecified) (tested in a mixture with another compound)

>  <growth, %>
105

$$$$
>  <COMPOUND>
Nc1ncnc2c1c(C(=O)NO)cn2C1OC(CO)C(O)C1O (stereo unspecified)

>  <growth, %>
-26.9

$$$$
>  <COMPOUND>
COc1cc(CNCCc2ccc(Cl)cc2)cc(OC)c1O

>  <growth, %>
66.3

$$$$

* * *

Test system: IGROV1 ovarian
Experiment: NCI-60 one-dose screen, 48 h
Settings: 10 µM
Method: Growth inhibition of the IGROV1 human tumor cell line is measured as a screen for anti-cancer activity. Cells are grown in 96 well plates and exposed to the test compound for 48 hours. Compounds are tested at a single concentration, which is 10^-5 M for most compounds. The reported endpoint is percent growth (GI% or GIPRCNT), where numbers from 0 - 100% represent growth inhibition, and numbers from -100% - 0 represent cell death. For example, a value of 40 represents 60% growth inhibition. […]
This is part of a sample that, as a whole, favours compounds with a hit. Of some 83,000 tested, about 20% had one in any assay. Active and inactive are the calls of the source. Rule for the calls: active = growth percent below 10; inactive = the rest.
Possible outcomes: y = active, n = inactive

>  <COMPOUND>
Clc1ccc(SSC(Cl)(Cl)Cl)cc1

>  <GROUP_LABEL>
n

$$$$
>  <COMPOUND>
CC1(C)N=C(N)N=C(N)N1c1ccc(CNC(=O)Nc2ccc(S(=O)(=O)F)c(Cl)c2)c(Cl)c1

>  <GROUP_LABEL>
n

$$$$
>  <COMPOUND>
NC(=O)SCC(=O)Nc1ccc([As](=O)(O)O)cc1

>  <GROUP_LABEL>
n

$$$$
>  <COMPOUND>
CCCCOC(=O)c1ccccc1C(=O)O.CCCCOC(=O)c1ccccc1C(=O)O.[Cu+2]

>  <GROUP_LABEL>
n

$$$$
>  <COMPOUND>
O=C1NC(=O)C(CN2C(=O)C3(c4ccccc42)[C@H](Cl)C(=O)N3c2ccccc2)C(=O)N1 (stereo partly drawn)

>  <GROUP_LABEL>
n

$$$$
>  <COMPOUND>
COc1ccc(CN2CCN(Cc3ccccc3)CC2)c(O)c1

>  <GROUP_LABEL>
n

$$$$
>  <COMPOUND>
OC1(c2ccccc2F)c2ccccc2C2=NCCN21 (stereo not drawn)

>  <GROUP_LABEL>
n

$$$$
>  <COMPOUND>
O=C(O)CNC(=O)c1ccccc1

>  <GROUP_LABEL>
n

$$$$
>  <COMPOUND>
C=CC(O)CN1CC1CC (stereo not drawn)

>  <GROUP_LABEL>
n

$$$$
>  <COMPOUND>
COc1cc(N(CCCl)CCCl)ccc1C=Nc1ccccc1C(=O)O

>  <GROUP_LABEL>
n

$$$$
>  <COMPOUND>
CC[C@@]1(C2O[C@@H](C3O[C@@](O)(CC)[C@H](C)C[C@@H]3C)C[C@@H]2C)CC[C@H]([C@]2(C)CCC3(C[C@H](O)[C@@H](C)[C@@H]([C@H](C)[C@@H](OC)[C@H](C)C(=O)O)O3)O2)O1 (stereo partly drawn)

>  <GROUP_LABEL>
n

$$$$
>  <COMPOUND>
Cc1ccccc1O

>  <GROUP_LABEL>
n

$$$$
>  <COMPOUND>
ClCCN(CCCl)c1ccc(C=NCCc2c[nH]c3ccccc23)cc1

>  <GROUP_LABEL>
n

$$$$
>  <COMPOUND>
CCOP(=O)(OCC)Oc1ccc(Sc2ccc(OP(=O)(OCC)OCC)cc2)cc1

>  <GROUP_LABEL>
n

$$$$
>  <COMPOUND>
Cc1cccc(N(C)c2cccc3c2C(=O)[Se]C3)c1C

>  <GROUP_LABEL>
n

$$$$
>  <COMPOUND>
C=C=[CH][Sn]([c]1ccccc1)([c]1ccccc1)[c]1ccccc1

>  <GROUP_LABEL>
y

$$$$
>  <COMPOUND>
O=C1c2ccccc2C(=O)N1[N+](=O)[O-]

>  <GROUP_LABEL>
n

$$$$
>  <COMPOUND>
O=[N+]([O-])c1ccc2cnn(CSP(=S)(c3ccccc3)c3ccccc3)c2c1

>  <GROUP_LABEL>
n

$$$$
>  <COMPOUND>
COC(C)(C)CCC[C@H](C)C/C=C/C(C)=C/C(=O)OC(C)C

>  <GROUP_LABEL>
n

$$$$
>  <COMPOUND>
C/C(=N/OC(=O)N(C)C)c1ccc(Cl)cc1Cl

>  <GROUP_LABEL>
n

$$$$
>  <COMPOUND>
Nc1cccc2c1Oc1ccccc1O2

>  <GROUP_LABEL>
y

$$$$
>  <COMPOUND>
CNC(=O)Oc1cccc(OC)c1

>  <GROUP_LABEL>
n

$$$$
>  <COMPOUND>
CNC(=O)Oc1cccc(N(C)C)c1

>  <GROUP_LABEL>
n

$$$$
